# Method: Measured logD7.4
# Type: physicochemical
# Study Conditions: pH 7.4
Parameter Measured: logD

[[record]]
compound = "Cn1c(=O)cc(NC(C)(C)c2ncc(C3CC3)cn2)c2cc(Nc3ccnc(Cl)c3C#N)ccc21"
result = 2.7

[[record]]
compound = "Cn1c(=O)cc(NC(C)(C)c2ncccn2)c2cc(Nc3ccnc(Cl)c3C#N)ccc21 [Compound 13g]"
result = 1.9

[[record]]
compound = "CC(Nc1cc(=O)n(C)c2ccc(Nc3ccnc(Cl)c3C#N)cc12)c1ncccn1 (stereo not drawn) [Compound 13e]"
result = 1.4


---

# Method: In vivo pharmacokinetic study in female Balb/c mice
# Study Conditions: female, Balb/c, mouse, whole blood, iv, 1 mg/kg, IV 1 mg/kg, individual animals
Parameter Measured: AUC(0-t) (µM·h)

[[record]]
compound_structure = "Cn1c(=O)cc(NC(C)(C)c2ncc(C3CC3)cn2)c2cc(Nc3ccnc(Cl)c3C#N)ccc21"
units_text = "µM·h"
result = 1.28


---

# System Tested: BCL6 BTB domain (Homo sapiens)
# Method: biochemical
# Study Conditions: read-out: TR-FRET IC50 individual replicates; single replicates; italic values used 10nM BCL6, otherwise 1nM BCL6
pIC50: −log10 of the molar value.
Measured pIC50 by item
Parameter Measured: pIC50

[[record]]
molecule = "Cc1cnc(C(C)Nc2cc(=O)n(C)c3ccc(Nc4ccnc(Cl)c4C#N)cc23)nc1 (stereo not drawn) [Compound 24a]"
parameter_measured = "pIC50"
result = 7.15

[[record]]
molecule = "CN1CCN(c2cc(=O)[nH]c3ccc(Nc4ccnc(Cl)c4C#N)cc23)CC1"
parameter_measured = "pIC50"
result = 5.59

[[record]]
molecule = "CNC(=O)CNc1cc(=O)[nH]c2ccc(Nc3ccnc(Cl)c3C#N)cc12 [Compound 12e]"
parameter_measured = "pIC50"
result = 4.64

[[record]]
molecule = "CN(C)c1cc(=O)[nH]c2ccc(Nc3ccnc(Cl)c3C#N)cc12"
parameter_measured = "pIC50"
result = 5.26

[[record]]
molecule = "CC(Nc1cc(=O)n(CC2CC2)c2ccc(Nc3ccnc(Cl)c3C#N)cc12)c1ncccn1 (stereo not drawn) [Compound 17a]"
parameter_measured = "pIC50"
result = 6.39

[[record]]
molecule = "CNC(=O)C(Nc1cc(=O)[nH]c2ccc(Nc3ccnc(Cl)c3C#N)cc12)C1CC1 (stereo not drawn) [Compound 12d]"
parameter_measured = "pIC50"
result = 5.96


---

# System Tested: BCL6 BTB domain (Homo sapiens, UniProt P41182)
# Method: Rapid X-ray screen: ligand density in extended pocket of BCL6 BTB domain
# Set-up: made in house; host or cells: E. coli BL21-AI
# Study Conditions: crystals soaked with compound
Parameter Measured: Ligand density in extended pocket

[[record]]
compound_structure = "CN1CCN(c2cc(=O)[nH]c3ccc(Nc4ccnc(Cl)c4C#N)cc23)CC1"
result = "No"

[[record]]
compound_structure = "Cn1cc(-c2cc(=O)[nH]c3ccc(Nc4ccnc(Cl)c4C#N)cc23)cn1"
result = "Yes"

[[record]]
compound_structure = "CCNc1cc(=O)[nH]c2ccc(Nc3ccnc(Cl)c3C#N)cc12"
result = "Yes"

[[record]]
compound_structure = "CN(C)c1cc(=O)[nH]c2ccc(Nc3ccnc(Cl)c3C#N)cc12"
result = "No"

[[record]]
compound_structure = "N#Cc1c(Nc2ccc3[nH]c(=O)cc(N4CCOCC4)c3c2)ccnc1Cl"
result = "No"

[[record]]
compound_structure = "N#Cc1c(Nc2ccc3[nH]c(=O)cc(N4CCCCC4)c3c2)ccnc1Cl"
result = "No"


---

# Method: PAMPA passive permeability pH 7.4
# Study Conditions: pH 7.4, passive permeability Pe
Parameter Measured: PAMPA7.4

[[record]]
compound = "Cn1c(=O)cc(NC(C)(C)c2ncccn2)c2cc(Nc3ccnc(Cl)c3C#N)ccc21 [Compound 13g]"
result = "1.8 x10^-6 cms^-1"

[[record]]
compound = "CC(Nc1cc(=O)n(CC2CC2)c2ccc(Nc3ccnc(Cl)c3C#N)cc12)c1ncccn1 (centres unmarked) [Compound 17a]"
result = "8.5 x10^-6 cms^-1"

[[record]]
compound = "C[C@@H](Nc1cc(=O)n(C)c2ccc(Nc3ccnc(Cl)c3C#N)cc12)c1ncccn1 [Compound 13f]"
result = "0.8 x10^-6 cms^-1"

[[record]]
compound = "Cc1cnc(C(C)Nc2cc(=O)n(C)c3ccc(Nc4ccnc(Cl)c4C#N)cc23)nc1 (centres unmarked) [Compound 24a]"
result = "5.6 x10^-6 cms^-1"

[[record]]
compound = "CNC(=O)C(C)Nc1cc(=O)n(C)c2ccc(Nc3ccnc(Cl)c3C#N)cc12 (centres unmarked) [Compound 13a]"
result = "<0.2 x10^-6 cms^-1"

[[record]]
compound = "CC(Nc1cc(=O)n(CC2CCC2)c2ccc(Nc3ccnc(Cl)c3C#N)cc12)c1ncccn1 (centres unmarked) [Compound 17b]"
result = "21 x10^-6 cms^-1"

[[record]]
compound = "Cn1c(=O)cc(NC(C)(C)c2ncc(C3CC3)cn2)c2cc(Nc3ccnc(Cl)c3C#N)ccc21 [Compound 25]"
result = "35 x10^-6 cms^-1"

[[record]]
compound = "CC(Nc1cc(=O)n(C)c2ccc(Nc3ccnc(Cl)c3C#N)cc12)c1ncc(C2CC2)cn1 (centres unmarked) [Compound 24b]"
result = "14 x10^-6 cms^-1"


---

# Method: In vivo pharmacokinetic study in female Balb/c mice
# Study Conditions: female, Balb/c, whole blood, po; mouse, 5 mg kg^–1 p.o. vs 1 mg kg^–1 i.v.
# Description: 5. Supplementary experimental: in vivo PK and PD experiments All procedures were in accordance with UK Home Office regulations under the Animals (Scientific […] accordance with published guidelines17. […] Following centrifugation, extracts were analyzed by multiple reaction monitoring of precursor and product ions by ESI-LCMS/MS on either a Waters (Milford, MA, USA) Xevo TQ-S or Sciex (Framingham, MA, USA) QTrap6500 following gradient separation with 0.1% […]
Parameter Measured: bioavailability (%)

[[record]]
compound_structure = "Cn1c(=O)cc(NC(C)(C)c2ncc(C3CC3)cn2)c2cc(Nc3ccnc(Cl)c3C#N)ccc21"
parameter_measured = "bioavailability"
units_text = "%"
result = 29


---

# Method: In vivo pharmacokinetic study in female Balb/c mice
# Study Conditions: female, Balb/c, mouse, whole blood, po, 5 mg/kg, PO 5 mg/kg, individual animals
Parameter Measured: AUC(0-t) (µM·h)

[[record]]
compound_structure = "Cn1c(=O)cc(NC(C)(C)c2ncc(C3CC3)cn2)c2cc(Nc3ccnc(Cl)c3C#N)ccc21"
parameter_measured = "AUC(0-t)"
result = 1.35


---

# Method: In vivo pharmacokinetic study in female Balb/c mice
# Study Conditions: female, Balb/c, mouse, whole blood, iv, 1 mg/kg, 1 mg kg^–1 i.v., mean, read-out: clearance (CL)
Parameter Measured: clearance (mL/min/kg)

[[record]]
compound = "Cn1c(=O)cc(NC(C)(C)c2ncc(C3CC3)cn2)c2cc(Nc3ccnc(Cl)c3C#N)ccc21 [Compound 25]"
units_text = "mL/min/kg"
result = 24


---

# System Tested: BCL6 BTB domain (Homo sapiens)
# Method: SPR assay, immobilised BCL6 BTB protein (Biacore T200)
# Assay type: binding
# Parameters: made in house; host or cells: E. coli BL21-AI
# Study Conditions: mean of four runs; read-out: SPR KD mean value
pKd: −log10 of the molar value.
Parameter Measured: pKd

[[record]]
compound = "Cn1c(=O)cc(NC(C)(C)c2ncc(C3CC3)cn2)c2cc(Nc3ccnc(Cl)c3C#N)ccc21 [Compound 25]"
parameter_measured = "pKd"
result = 6.63


---

# Method: In vivo pharmacokinetic study in female Balb/c mice
# Study Conditions: female, Balb/c, mouse, whole blood, iv, 1 mg/kg, IV 1 mg/kg, individual animals, read-out: CL
Parameter Measured: clearance

[[record]]
compound_structure = "Cn1c(=O)cc(NC(C)(C)c2ncc(C3CC3)cn2)c2cc(Nc3ccnc(Cl)c3C#N)ccc21"
parameter_measured = "clearance"
result = "24.9 mL/min/kg"


---

# Method: In vivo pharmacokinetic study in female Balb/c mice
# Study Conditions: female, Balb/c, mouse, whole blood, iv, 1 mg/kg, IV 1 mg/kg, individual animals, read-out: Vss
Parameter Measured: Vd (L/kg)

[[record]]
compound_structure = "Cn1c(=O)cc(NC(C)(C)c2ncc(C3CC3)cn2)c2cc(Nc3ccnc(Cl)c3C#N)ccc21"
result = 9.43


---

# Method: PAMPA passive permeability pH 7.4
# Study Conditions: pH 7.4, passive permeability Pe
Parameter Measured: PAMPA7.4

[[record]]
molecule = "CC(Nc1cc(=O)n(C)c2ccc(Nc3ccnc(Cl)c3C#N)cc12)c1ncco1 (stereo not shown) [Compound 13b]"
result = "1.0 x10^-6 cms^-1"

[[record]]
molecule = "Cc1nnc(C(C)Nc2cc(=O)n(C)c3ccc(Nc4ccnc(Cl)c4C#N)cc23)o1 (stereo not shown) [Compound 13c]"
result = "<0.2 x10^-6 cms^-1"

[[record]]
molecule = "CC(Nc1cc(=O)n(C)c2ccc(Nc3ccnc(Cl)c3C#N)cc12)c1ncccn1 (stereo not shown) [Compound 13e]"
result = "1.4 x10^-6 cms^-1"


The measurements presented in this section are drawn from paper PMC8667045.
